Tested on: CD2F1 mice, L1210 leukemia ip, survival T/C
Test: NCI In Vivo Anticancer Drug Screen. Data for tumor model L1210 Leukemia (intraperitoneal) in CD2F1 (CDF1) mice
Settings: endpoint: mean survival time; dose: 200.0 mg/kg/injection; schedule: Q01DX001 (ip); vehicle: saline with Tween-80; higher = longer survival
Toxic doses and inconclusive results are not listed.
quantity-measured: T/C

See these solved cases before continuing.
molecule	target-under-test	T/C
CC(=O)NC(C)(C)Cc1ccccc1	CD2F1 mice, L1210 leukemia ip, survival T/C	117 % of control
O=c1cc(NCCCCc2ccccc2)[nH]c(=O)[nH]1	CD2F1 mice, L1210 leukemia ip, survival T/C	91 % of control
CCOc1ccc(-n2c(-c3ccc(Br)cc3)csc2=NC(=O)c2ccccc2F)cc1	CD2F1 mice, L1210 leukemia ip, survival T/C	91 % of control
CCCCC=C(C1CCCC1C)C1CCCC1C (stereo unspecified)	CD2F1 mice, L1210 leukemia ip, survival T/C	102 % of control

Would you mind listing T/C for each of the following molecules?
1. N=S(=O)(c1ccccc1)c1ccccc1
2. COC(=O)C1C2C=CC(CC2)C1C(=O)OC (stereo unspecified)

["94 % of control", "88 % of control"]

* * *

Tested on: CD2F1 mice, L1210 leukemia ip, survival T/C
Assay: NCI In Vivo Anticancer Drug Screen. Data for tumor model L1210 Leukemia (intraperitoneal) in CD2F1 (CDF1) mice
Conditions: endpoint: mean survival time; dose: 100.0 mg/kg/injection; schedule: Q01DX009 (ip); vehicle: other; higher = longer survival
Toxic doses and inconclusive results are not listed.
Exercise: state measured T/C for each of the molecules provided.

molecule-smiles	target-under-test	T/C
O=c1n(-c2ccccc2)c(=O)n2n1CC(c1ccccc1)=N2	CD2F1 mice, L1210 leukemia ip, survival T/C	103 % of control
CNC(=S)NCc1ccc(C(=O)NC(C)C)cc1	CD2F1 mice, L1210 leukemia ip, survival T/C	95 % of control
COc1ccc(C(OC/C=C(\C)CCC=C(C)C)OC/C=C(\C)CCC=C(C)C)cc1	CD2F1 mice, L1210 leukemia ip, survival T/C	95 % of control
CCOC(=O)NC(C)(C)CN(C(=O)OCC)C(C)C	CD2F1 mice, L1210 leukemia ip, survival T/C	102 % of control

Look at each molecule and report its T/C.
1. Oc1ccc(O)c2c1C1(Cl)C(Cl)=C(Cl)C2(Cl)C1(Cl)Cl
2. O=C(/C=C\c1ccnc2ccccc12)c1ccc([N+](=O)[O-])cc1

1. 95 % of control
2. 92 % of control

Dear reader, for each entry below, please note its T/C.
1. Brc1ccc([Si](c2ccccc2)(c2ccccc2)c2ccc(-c3ccccc3)cc2)cc1
2. COc1ccc(Cc2ccc(O)cc2)cc1

1. 102 % of control
2. 101 % of control

* * *

Tested on: CD2F1 mice, L1210 leukemia ip, survival T/C
Assay: NCI In Vivo Anticancer Drug Screen. Data for tumor model L1210 Leukemia (intraperitoneal) in CD2F1 (CDF1) mice
Conditions: endpoint: mean survival time; dose: 200.0 mg/kg/injection; schedule: Q01DX001 (ip); vehicle: saline; higher = longer survival
Toxic doses and inconclusive results are not listed.
quantity-measured: T/C

Guide cases for T/C, answers given:
compound	T/C
COc1ccc(/C=N/N=C(/C(=O)c2ccc(OC)cc2)c2ccc(OC)cc2)cc1	91 % of control
c1ccc(CNCCCNCc2ccccn2)nc1	100 % of control
Cc1ccc(-c2oc3ccccc3c(=O)c2O)cc1	98 % of control

Dear colleague, could you send me T/C for each of the items below? Thanks.
1. CC(=O)C(C)(c1ccccc1)N(Cc1ccccc1)C(=O)c1ccccc1 (stereo unspecified)
2. OC(CN(C1CCCCC1)C1CCCCC1)c1ccc(Cl)c(Cl)c1 (stereo unspecified)
3. O=C1c2ccccc2C(=O)c2cc(NS(=O)(=O)C(F)(F)F)ccc21
4. O=CNCCc1ccc2c(c1)[nH]c1ccccc12
5. OC12CC3C4CC(O1)C1C4CC3C12 (stereo unspecified)
6. CN(C)CC(CN(C)C)C(=O)O
7. NCC(=O)Nc1ccc(Cl)cc1C(=O)c1ccc[nH]1

98 % of control
91 % of control
100 % of control
98 % of control
96 % of control
108 % of control
89 % of control

Name the recorded T/C of the item CCCCN(CCCC)CCCN(CCCOS(C)(=O)=O)CCCOS(C)(=O)=O in your answer. 90 % of control

* * *

Test system: CD2F1 mice, L1210 leukemia ip, survival T/C
Assay: NCI In Vivo Anticancer Drug Screen. Data for tumor model L1210 Leukemia (intraperitoneal) in CD2F1 (CDF1) mice
Settings: endpoint: mean survival time; dose: 100.0 mg/kg/injection; schedule: Q01DX001 (ip); vehicle: saline with Tween-80; higher = longer survival
Toxic doses and inconclusive results are not listed.
quantity-measured: T/C

Illustrative cases are given below, each with its answer.
molecule	T/C
Cc1cc(C)c(S(=O)(=O)F)cc1C(=O)O	101 % of control
C#CC(OC(=O)NC(CCSC)C(=O)OC)(c1ccccc1)c1ccccc1 (configuration not stated)	102 % of control
NNc1c(F)c(F)c2c(F)c(F)c(F)c(F)c2c1F	88 % of control

Hello, I would appreciate it if you could give T/C for each entry below.
1. Nc1cc(N)nc(N)n1
2. Cc1nc(N)[nH]c(=O)c1CCCNc1cccnc1
3. O=c1cc(-c2ccccc2)[nH]c(=S)[nH]1

103 % of control
96 % of control
115 % of control

* * *

Tested on: CD2F1 mice, L1210 leukemia ip, survival T/C
Test: NCI In Vivo Anticancer Drug Screen. Data for tumor model L1210 Leukemia (intraperitoneal) in CD2F1 (CDF1) mice
Settings: endpoint: mean survival time; dose: 400.0 mg/kg/injection; schedule: Q04DX003 (ip); vehicle: saline with Tween-80; higher = longer survival
Protocol: The antitumor activity of compounds was measured in mice bearing transplantable tumors. Survival or tumor size were measured and the results are expressed as the measurement made in the treated group (T) divided by the measurement made in the vehicle treated control group (C). The tumor model used in this assay is L1210 Leukemia (intraperitoneal) in CD2F1 (CDF1) mice
Inconclusive results and toxic doses are left out.
quantity-measured: T/C

Example molecules with recorded T/C:
molecule	T/C
CCC1(CCC#N)CCC(N)=CC1=O (configuration not stated)	101 % of control
CCCCCCNC(=O)Nc1ccc(Cl)c(Cl)c1	93 % of control
CCOC(=O)C1CC1C(=O)OCC (configuration not stated)	103 % of control
CC(=O)OC1CCC2(C)C(=CCC3C2CCC2(C)C(C(C)CCCC(C)(C)O)CCC32)C1 (configuration not stated)	94 % of control

For every listed record, write down its T/C.
1. O=C(/C=C\c1ccnc2ccccc12)c1ccc([N+](=O)[O-])cc1
2. COc1ccc(Br)cc1C1OC(=O)c2c(OC)c(OC)cc(N)c21 (configuration not stated)
3. O=C1c2ccccc2C(c2ccccc2)(c2ccccc2)N1c1ccccc1

["91 % of control", "88 % of control", "107 % of control"]

* * *

Test system: CD2F1 mice, L1210 leukemia ip, survival T/C
Test: NCI In Vivo Anticancer Drug Screen. Data for tumor model L1210 Leukemia (intraperitoneal) in CD2F1 (CDF1) mice
Details: endpoint: mean survival time; dose: 100.0 mg/kg/injection; schedule: Q01DX009 (ip); vehicle: saline with Tween-80; higher = longer survival
Inconclusive results and toxic doses are left out.
quantity-measured: T/C

Reference set, count: 3
compound	target-under-test	value
Cc1cc2ncn(CO)c2cc1C	CD2F1 mice, L1210 leukemia ip, survival T/C	105 % of control
Cc1nc2ccc(Cl)cc2c(=O)o1	CD2F1 mice, L1210 leukemia ip, survival T/C	103 % of control
CSC(=S)N(C)N	CD2F1 mice, L1210 leukemia ip, survival T/C	104 % of control

Hi team, please reply with T/C for each item in this list.
1. Cc1ccc(S(=O)(=O)O/N=C2/CCC(C)(C)c3ccccc32)cc1
2. O=C(O)C1=NN(c2ccc(S(=O)(=O)O)cc2)C(=O)C1

1: 102 % of control; 2: 96 % of control

For each entry beneath this line, provide reported T/C.
1. C=CCN(CC=C)CCNc1cc(C)nc(Nc2nc3ccc(Cl)cc3[nH]2)n1
2. O=C1C=CC(=O)N1c1ccccc1Cl (tested in a mixture with another compound)
3. N#CC1=C(C#N)C(=O)c2ccccc2C1=O
4. COC(=O)c1c[nH]c(=S)n1C(C)c1ccccc1 (stereo not drawn)

["86 % of control", "95 % of control", "88 % of control", "105 % of control"]

Give measured T/C for every item shown.
1. CCc1ccccc1OS(=O)(=O)c1cccc([N+](=O)[O-])c1
2. COc1cc(Cl)ccc1NC(=O)OCCOc1c(C(C)C)cccc1C(C)C

1: 96 % of control; 2: 101 % of control

Return reported T/C values for all items listed beneath this line.
1. Clc1c(Cl)c(Cl)c(Cl)c(Cl)c1Cl
2. Cc1nc(N)n[nH]1
3. O=C(O)/C(Br)=C/c1ccccc1
4. CCN(CC)CCCC(C)(NCc1ccccc1)[P+](=O)O (stereo not drawn)
5. Cc1ccc2c(c1)Sc1ccc3ccccc3c1N2
6. O=[N+]([O-])c1ccc2nc3c(nc2c1)-c1cccc2cccc-3c12

1: 97 % of control; 2: 92 % of control; 3: 90 % of control; 4: 90 % of control; 5: 95 % of control; 6: 98 % of control

Working through the 3 compounds below one at a time, give T/C for each.
1. COc1ccccc1NC(=S)NCCO
2. Nc1ncnc2c1ncn2CCCN1C(=O)c2ccccc2C1=O
3. N#C/C(=C1C=C/C(=N\O)C(Cl)=C\1)c1ccccc1

["97 % of control", "93 % of control", "103 % of control"]

Hey, can you go through the list below and give me T/C for every item?
1. COc1cccc(OC)c1C(c1c(OC)cccc1OC)c1c(OC)cccc1OC
2. COc1ccc(NC(=S)/C(=C(\[O-])c2ccc([N+](=O)[O-])cc2)[n+]2ccc(C(C)C)cc2)cc1
3. N=C(N)c1ccc(OCCOc2cccc(N)c2)cc1

1: 98 % of control; 2: 91 % of control; 3: 93 % of control
